These data points were gathered from the supplement of paper PMC7530171.

# System: THP-1 macrophages infected with Mycobacterium tuberculosis H37Rv
# assayDetails: intracellular M.tb growth inhibition relative to DMSO (0) and 4 uM bedaquiline (100); higher = stronger inhibition of intracellular bacterial growth
# conditions: 10 µM; 4 days
Entries and their intracellular M.tb growth inhibition values follow.

Example entries begin here.
[
  {
    "compound": "c1cc(OCCN2CCCCC2)cc(-c2n[nH]c3ccc(-c4nnc[nH]4)cc23)c1",
    "endpointLabel": "intracellular M.tb growth inhibition",
    "readoutValue": "-65.3%"
  },
  {
    "compound": "COc1cc2ncnc(Nc3cccc(Br)c3)c2cc1OC",
    "endpointLabel": "intracellular M.tb growth inhibition",
    "readoutValue": "-64%"
  },
  {
    "compound": "O=C(O)c1ccc(-c2c[nH]c3ncc(-c4ccccc4)cc23)cc1C1CCCC1",
    "endpointLabel": "intracellular M.tb growth inhibition",
    "readoutValue": "-23.5%"
  }
]

Query: What value of measured intracellular M.tb growth inhibition is listed for "O=C1NCCCc2c1oc1ccc(O)cc21" ?
Reply: 11%

Query: Also need "O=C1Nc2ccc(I)cc2/C1=C/c1cc(Br)c(O)c(Br)c1" , thanks.
Reply: 9.15%

Query: Next compound: Cc1cc(C(C)Nc2ccccc2)c2nc(N3CCOCC3)cc(=O)n2c1 (stereo unspecified)
Reply: -38.7%
